- Tested on: Escherichia coli TOP10;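 also: peptides expressed intracellularly from a pBAD plasmid library in pooled LB shake-flask culture, induced with 0.3% L-arabinose, DNA abundance read by NGS, three biological replicates, DESeq2 with apeglm shrinkage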
- PROTOCOL TEXT: shrunken log2 fold change of peptide-encoding DNA abundance (4.5 h post-induction vs induction); higher = less antimicrobial activity (less host growth inhibition)
- ASSAY SETUP: time post-induction: 4.5 h; library: site-saturation at positions 5, 18, 19, 20
Can you tell me shrunken log2 fold change for the items I'm about to list?
// response body must contain only the number

Problem: Name the reported shrunken log2 fold change value associated with the sequence RRIRERPPRLPRPRPRPYSMPRP
Solution: -1.48

Problem: Name the reported shrunken log2 fold change value associated with the sequence RRIRWRPPRLPRPRPRPWFTPRP
Solution: -0.0224

Problem: Name the reported shrunken log2 fold change value associated with the sequence RRIRFRPPRLPRPRPRPINRPRP
Solution: 0.0882

Problem: Name the reported shrunken log2 fold change value associated with the sequence RRIRYRPPRLPRPRPRPSCEPRP
Solution: -0.586

Problem: Name the reported shrunken log2 fold change value associated with the sequence RRIRQRPPRLPRPRPRPPANPRP
Solution: 0.409

Problem: Name the reported shrunken log2 fold change value associated with the sequence RRIRARPPRLPRPRPRPHATPRP
Solution: 1.01

Problem: Name the reported shrunken log2 fold change value associated with the sequence RRIRDRPPRLPRPRPRPICTPRP
Solution: 0.198

Problem: Name the reported shrunken log2 fold change value associated with the sequence RRIRLRPPRLPRPRPRPDQLPRP
Solution: -0.0435

Problem: Name the reported shrunken log2 fold change value associated with the sequence RRIRNRPPRLPRPRPRPRTKPRP
Solution: 0.123

Problem: Name the reported shrunken log2 fold change value associated with the sequence RRIRQRPPRLPRPRPRPDPCPRP
Solution: -0.243

Problem: Name the reported shrunken log2 fold change value associated with the sequence RRIRWRPPRLPRPRPRPAYHPRP
Solution: -0.361

Problem: Name the reported shrunken log2 fold change value associated with the sequence RRIRVRPPRLPRPRPRPGAWPRP
Solution: 0.323

Problem: Name the reported shrunken log2 fold change value associated with the sequence RRIRRRPPRLPRPRPRPGRCPRP
Solution: 0.27

Problem: Name the reported shrunken log2 fold change value associated with the sequence RRIRHRPPRLPRPRPRPTRVPRP
Solution: 0.211

Problem: Name the reported shrunken log2 fold change value associated with the sequence RRIRFRPPRLPRPRPRPIHWPRP
Solution: -0.414

Problem: Name the reported shrunken log2 fold change value associated with the sequence RRIRFRPPRLPRPRPRPPEWPRP
Solution: 0.139

Problem: Name the reported shrunken log2 fold change value associated with the sequence RRIRIRPPRLPRPRPRPCGYPRP
Solution: -0.01

Problem: Name the reported shrunken log2 fold change value associated with the sequence RRIRFRPPRLPRPRPRPTDMPRP
Solution: 0.0617

Problem: Name the reported shrunken log2 fold change value associated with the sequence RRIRVRPPRLPRPRPRPVCVPRP
Solution: -0.0658

Problem: Name the reported shrunken log2 fold change value associated with the sequence RRIRGRPPRLPRPRPRPPAQPRP
Solution: 1.4

Problem: Name the reported shrunken log2 fold change value associated with the sequence RRIRRRPPRLPRPRPRPLQNPRP
Solution: 0.045

Problem: Name the reported shrunken log2 fold change value associated with the sequence RRIRTRPPRLPRPRPRPHNVPRP
Solution: -0.141

Problem: Name the reported shrunken log2 fold change value associated with the sequence RRIRYRPPRLPRPRPRPYVEPRP
Solution: -0.00822

Problem: Name the reported shrunken log2 fold change value associated with the sequence RRIRWRPPRLPRPRPRPTWDPRP
Solution: 0.395

Problem: Name the reported shrunken log2 fold change value associated with the sequence RRIRTRPPRLPRPRPRPHYMPRP
Solution: -0.476

Problem: Name the reported shrunken log2 fold change value associated with the sequence RRIRSRPPRLPRPRPRPVYMPRP
Solution: -0.461

Problem: Name the reported shrunken log2 fold change value associated with the sequence RRIRKRPPRLPRPRPRPCRGPRP
Solution: -0.115

Problem: Name the reported shrunken log2 fold change value associated with the sequence RRIRARPPRLPRPRPRPDTQPRP
Solution: 0.374

Problem: Name the reported shrunken log2 fold change value associated with the sequence RRIRCRPPRLPRPRPRPPECPRP
Solution: 0.131

Problem: Name the reported shrunken log2 fold change value associated with the sequence RRIRTRPPRLPRPRPRPHLAPRP
Solution: 0.159

Problem: Name the reported shrunken log2 fold change value associated with the sequence RRIRLRPPRLPRPRPRPLPKPRP
Solution: 0.393

Problem: Name the reported shrunken log2 fold change value associated with the sequence RRIRGRPPRLPRPRPRPQENPRP
Solution: 0.462
